- experimentalDetails: Toxicity in rat after 5 days
- Format: organism-based
- conditionNotes: in vivo
endpointName: NOAEL at 120 h

Data request: Find the recorded NOAEL at 120 h belonging to "COc1ccc2c(c1)C=C1Cn3c-2c(C2CCCCC2)c2ccc(cc23)C(=O)NS(=O)(=O)N(C)CCOCCN(C)C1=O" and report it.
Data returned: ≤ 1000 mg/kg/day

====

- experimentalDetails: Drug uptake in Sprague-Dawley rat liver at 10 mg/kg, po after 7 hrs
- Type: ADME, organism-based
- Design: dose 10 mg/kg, route oral
- conditionNotes: read-out: Drug uptake
Kindly supply the reported concentration at 7 h values for the records listed here.
Could you give me the number in ng/g? Just the number is fine.

Data request: Find the recorded concentration at 7 h belonging to "CN1CCOCCN(C)S(=O)(=O)NC(=O)c2ccc3c(C4CCCCC4)c4n(c3c2)CC(=Cc2cc(F)ccc2-4)C1=O" and report it.
Data returned: 6560

Data request: Find the recorded concentration at 7 h belonging to "COc1ccc2c(c1)C=C1Cn3c-2c(C2CCCCC2)c2ccc(cc23)C(=O)NS(=O)(=O)N(C)CCN2CCN(CC2)C1=O" and report it.
Data returned: 299

Data request: Find the recorded concentration at 7 h belonging to "COc1ccc2c(c1)C=C1Cn3c-2c(C2CCCCC2)c2ccc(cc23)C(=O)NS(=O)(=O)N(C)CCCCCNC1=O" and report it.
Data returned: 6320

Data request: Find the recorded concentration at 7 h belonging to "COc1ccc2c(c1)[C@@H]1C[C@]13Cn1c-2c(C2CCCCC2)c2ccc(cc21)C(=O)NS(=O)(=O)N(C)CCOCCN(C)C3=O" and report it.
Data returned: 3200

Data request: Find the recorded concentration at 7 h belonging to "COc1ccc2c(c1)C[C@@H]1Cn3c-2c(C2CCCCC2)c2ccc(cc23)C(=O)NS(=O)(=O)N(C)CCOCCN(C)C1=O" and report it.
Data returned: 898

Data request: Find the recorded concentration at 7 h belonging to "COc1ccc2c(c1)C=C1Cn3c-2c(C2CCCCC2)c2ccc(cc23)C(=O)NS(=O)(=O)N(C)CCOCCN(C)C1=O" and report it.
Data returned: 7800

====

- experimentalDetails: Oral bioavailability in Sprague-Dawley rat at 10 mg/kg
- Format: ADME, organism-based
- conditionNotes: in vivo
endpointName: bioavailability (%)
Could you give me the number in %? Just the number is fine.

Data request: Find the recorded bioavailability belonging to "COc1ccc2c(c1)[C@@H]1C[C@]13Cn1c-2c(C2CCCCC2)c2ccc(cc21)C(=O)NS(=O)(=O)N(C)CCOCCN(C)C3=O" and report it.
Data returned: 51

====

- experimentalDetails: Ratio of drug level in liver to plasma in Sprague-Dawley rat at 10 mg/kg, po after 7 hrs
- Type: ADME, organism-based
- Design: dose 10 mg/kg, route oral
endpointName: Kp at 7 h
Just the number.

Data request: Find the recorded Kp at 7 h belonging to "COc1ccc2c(c1)[C@@H]1C[C@]13Cn1c-2c(C2CCCCC2)c2ccc(cc21)C(=O)NS(=O)(=O)N(C)CCOCCN(C)C3=O" and report it.
Data returned: 38

====

Kindly supply the reported CC50 values for the records listed here.
- experimentalDetails: Cytotoxicity against human MT4 cells
- Assay type: cell-based

Data request: Find the recorded CC50 belonging to "COc1ccc2c(c1)C=C1Cn3c-2c(C2CCCCC2)c2ccc(cc23)C(=O)NS(=O)(=O)N(C)CCN(C)CCNC1=O" and report it.
Data returned: > 25 µM

Data request: Find the recorded CC50 belonging to "COc1ccc2c(c1)C=C1CN(C)CCCCN(C)S(=O)(=O)NC(=O)c3ccc4c(C5CCCCC5)c-2n(c4c3)C1" and report it.
Data returned: > 25 µM

Data request: Find the recorded CC50 belonging to "COc1ccc2c(c1)C=C1Cn3c-2c(C2CCCCC2)c2ccc(cc23)C(=O)NS(=O)(=O)N(C)CCCCN(C)C1=O" and report it.
Data returned: > 25 µM

====

- experimentalDetails: Cytotoxicity against human HepG2 cells after 3 days by resazurin-based fluorescence analysis
- Format: cell-based
endpointName: CC50 at 72 h

Data request: Find the recorded CC50 at 72 h belonging to "COc1ccc2c(c1)C=C1Cn3c-2c(C2CCCCC2)c2ccc(cc23)C(=O)NS(=O)(=O)N(C)CCOCCN(C)C1=O" and report it.
Data returned: > 50 µM

====

- experimentalDetails: Binding affinity to Hepatitis C virus genotype 6a NS5B by surface plasmon resonance analysis
- Design: species or system Hepatitis C virus subtype 6a
endpointName: pKd
Just the number, please; pKd means minus log10 of the concentration in mol/L.

Data request: Find the recorded pKd belonging to COc1ccc2c(c1)C=C1Cn3c-2c(C2CCCCC2)c2ccc(cc23)C(=O)NS(=O)(=O)N(C)CCOCCN(C)C1=O [TMC-647055] and report it.
Data returned: 7.52

====

- experimentalDetails: Cytotoxicity against HEK293T cells after 3 days by resazurin-based fluorescence analysis
- Format: cell-based, HEK-293T
- conditionNotes: human
endpointName: CC50 at 72 h

Data request: Find the recorded CC50 at 72 h belonging to "COc1ccc2c(c1)C=C1Cn3c-2c(C2CCCCC2)c2ccc(cc23)C(=O)NS(=O)(=O)N(C)CCOCCN(C)C1=O" and report it.
Data returned: > 50 µM

====

Kindly supply the reported CC50 values for the records listed here.
- experimentalDetails: Cytotoxicity against human HuH7 cells
- Assay type: cell-based, Huh-7

Data request: Find the recorded CC50 belonging to "COc1ccc2c(c1)C=C1Cn3c-2c(C2CCCCC2)c2ccc(cc23)C(=O)NS(=O)(=O)N(C)CCCN(C)C1=O" and report it.
Data returned: > 25 µM

Data request: Find the recorded CC50 belonging to "COc1ccc2c(c1)C=C1Cn3c-2c(C2CCCCC2)c2ccc(cc23)C(=O)NS(=O)(=O)N(C)CCCCN(C)C1=O" and report it.
Data returned: > 25 µM

Data request: Find the recorded CC50 belonging to "CN1CCOCCN(C)S(=O)(=O)NC(=O)c2ccc3c(C4CCCCC4)c4n(c3c2)CC(=Cc2cc(F)ccc2-4)C1=O" and report it.
Data returned: > 25 µM

Data request: Find the recorded CC50 belonging to "COc1ccc2c(c1)C=C1Cn3c-2c(C2CCCCC2)c2ccc(cc23)C(=O)NS(=O)(=O)N(C)CCCCCCN(C)C1=O" and report it.
Data returned: > 25 µM

====

- Tested on: Hepatitis C virus
- experimentalDetails: Antiviral activity against Hepatitis C virus genotype 1a infected in human HuH7-SG cells after 3 days by RT-PCR analysis
- Assay type: functional, organism-based, Hepacivirus hominis
- conditionNotes: subtype 1a, Huh-7, 72 h
endpointName: pEC50
Just the number, please; pEC50 means minus log10 of the concentration in mol/L.

Data request: Find the recorded pEC50 belonging to COc1ccc2c(c1)C=C1Cn3c-2c(C2CCCCC2)c2ccc(cc23)C(=O)NS(=O)(=O)N(C)CCOCCN(C)C1=O [TMC-647055] and report it.
Data returned: 6.78

This collection of values is drawn from ChEMBL document CHEMBL3124872.
